TARGET OR TEST SYSTEM: T1, Human CD228 protein (human, UniProt P08582 20-708, limits assumed)
T1 construct: Recombinant protein made in CHO cells, purified over a Ni column; The printed entry begins with the leader (MRGPSG...) and ends with ten His; also called hCD228; CD228-His protein
T1 sequence: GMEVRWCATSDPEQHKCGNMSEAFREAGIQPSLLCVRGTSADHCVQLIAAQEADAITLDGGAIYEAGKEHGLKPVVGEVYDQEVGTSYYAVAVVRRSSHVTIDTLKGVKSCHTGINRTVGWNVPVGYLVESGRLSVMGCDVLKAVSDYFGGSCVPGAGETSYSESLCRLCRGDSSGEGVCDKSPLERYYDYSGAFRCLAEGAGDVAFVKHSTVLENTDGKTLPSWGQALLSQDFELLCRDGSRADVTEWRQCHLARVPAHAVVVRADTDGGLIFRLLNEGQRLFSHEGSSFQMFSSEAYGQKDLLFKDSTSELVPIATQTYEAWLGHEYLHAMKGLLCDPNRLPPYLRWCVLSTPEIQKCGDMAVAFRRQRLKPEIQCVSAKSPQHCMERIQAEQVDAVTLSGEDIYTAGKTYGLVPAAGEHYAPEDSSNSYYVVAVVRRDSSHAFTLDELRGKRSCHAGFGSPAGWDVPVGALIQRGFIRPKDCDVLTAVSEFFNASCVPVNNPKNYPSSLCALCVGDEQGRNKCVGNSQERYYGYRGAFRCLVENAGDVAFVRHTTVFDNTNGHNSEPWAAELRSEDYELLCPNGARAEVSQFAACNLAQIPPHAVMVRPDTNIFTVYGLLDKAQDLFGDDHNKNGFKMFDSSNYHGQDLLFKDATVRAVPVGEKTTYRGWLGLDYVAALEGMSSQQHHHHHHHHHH
EXPERIMENT SUMMARY: Octet competition on His-chip CD228; competitor: CA149
EXPERIMENTAL READOUT: competition (1-response value/blank value) (%)
Expressed in %, but write only the number.

Fill in: competition (1-response value/blank value) of CA13 (antibody, human IgG1, kappa, V domains shown, Intact IgG1 from fully human antibody-transgenic mice) VH: EVQLVESGGGVVQPGRSLRLSCAASGFTFSSYAMHWVRQAPGKGLEWVAVISYDGSNKYYADSVKGRFTISRDNSKNTLFLQMNSLRAEDTAVYYCARDVYHYGSRSPYYYGMDVWGQGTTVTVSS VL: DIVMTQSPSSLSASVGDRVTITCRASQGISNYLAWFQQKPGKVPKLLIYAASTLQSGVPSRFSGSGSGTDFTLTISSLQPEDVATYYCQKYNSAPFTFGPGTKVDIKR is ___
101

Fill in: competition (1-response value/blank value) of CA67 (antibody, human IgG1, kappa, V domains shown, Intact IgG1) VH: EVQLVESGGGVVQPGRSLRLSCAASGFTFSSYAMHWVRQAPGKGLEWVAVISYDGSNKYYADSVKGRFTISRDNSKNTLYLQMNSLRAEDTAVYYCARDVYHYGSRSPYYYGMDVWGQGTTVTVSS VL: DIQMTQSPSSLSASVGDRVTITCRASQAISNYLAWYQQKPGKVPKLLIYAASTLHPGVPSRFSGSGSGTDFTLTISSLQPEDVATYYCQKYNSAPFTFGPGTKVDIKR is ___
103

Fill in: competition (1-response value/blank value) of reference antibody hL49 (antibody, human IgG1, kappa, V domains shown, also called H149; hL49 analogy) VH: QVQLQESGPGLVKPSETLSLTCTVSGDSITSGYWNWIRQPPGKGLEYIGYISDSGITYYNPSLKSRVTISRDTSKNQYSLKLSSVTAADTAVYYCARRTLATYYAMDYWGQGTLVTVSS VL: DFVMTQSPLSLPVTLGQPASISCRASQSLVHSDGNTYLHWYQQRPGQSPRLLIYRVSNRFSGVPDRFSGSGSGTDFTLKISRVEAEDVGVYYCSQSTHVPPTFGQGTKLEIKR is ___
-6

Fill in: competition (1-response value/blank value) of BA352 (antibody, human IgG1, kappa, V domains shown, Intact IgG1) VH: EVQLVESGGGVVQPGRSLRLSCAASGFTFSSYAMHWVRQAPGKGLEWVAVISYDGSNKYYADSVKGRFTISRDNSKNTLYLQMNSLRAEDTAVYYCARGPYLAAAGTALTFDIWGQGTMVTVSS VL: DIQMTQSPSAMSASVGDRVTITCRASQGINNYLAWFQQKPGKVPKRLIYAASSLQSGVPSRFSGSGSGTEFTLTISSLQPEDFATYYCLQHNSYPFTFGPGTKVDIKR is ___
-2

Origin of the recorded values: patent US20250121082A1
